Hello, the source for this data is ChEMBL document CHEMBL3507680, in case you need it.

- ASSAY TEXT: Human HepG2 cell viability assay in 384 well format
- Type: toxicity, cell-based
- Set-up: dose 125 nL, time 70.5 hour; concentration not given beside the values
- EXPERIMENTAL PARAMETERS: HepG2 cells, read-out: Inhibition
MEASURED METRIC: cytotoxicity at 70.5 h (%)
Numeric only. Scale: %

CN(CCC(O)c1ccccc1)c1cc(C2CC2)ncn1 (stereo not drawn) | -6.59
CC(O)C1CCN(C(=O)Nc2nc(-c3ccccc3)ns2)CC1 (stereo not drawn) | 4.55

Note: attention shifts to another entry.
Give the measured cytotoxicity at 70.5 h for CC(C)c1nn(C)c(Cl)c1CNCC(O)c1cccc(F)c1 (stereo not drawn)
-10.3
